Provide the reported GI50 of each item.
- Test system: RXF 393
In all, about 52,000 sequences went through this assay and about 3,900 (7.5%) were called active. The list is a sample of the results. Entries with a potency or affinity are not part of this list.
Please reply with the bare figure in µM and do not write the unit itself.

Quick one: GI50 of mu-(1,7-nanodiamine-N,N')bis-(cis-aminedichloroplatimum (II)), CHEMBL2146215 ? 15.4

Here is the next substance: [Bis(aminomethyl)tetramethylenesilane]dichloropaltinum(II), CHEMBL2146205 12.6

Here is the next substance: cis-Bis[[(trimethylsilyl)methyl]amino]tetrachloroplatinum(IV), CHEMBL2146191 2.72

Here is the next substance: [Bis(aminomethyl)tetramethylenesilane]tetrachloropaltinum(IV), CHEMBL2146189 25.4

Here is the next substance: [Bis(aminomethyl)diethylsilane]tetrachloroplatinum(IV), CHEMBL2146203 17.4

Here is the next substance: [Bis(aminomethyl)pentamethylenesilane]tetrachloropaltinum(IV), CHEMBL2146204 7.35

Here is the next substance: CISPLATIN, CHEMBL11359 3.33
